subject of test: T1, Human c-Met-Flis-Fc ECD (human)
T1 construct: also called human c-Met extracellular domain (ECD)-Fc-Flis fusion; Human cMet-ECD-Fc-Flis
procedure details: ELISA, coated ECD-Fc, antibody 100000.000 ng/mL
measured attribute: Average A450 nm (A450 nm)
Give bare numbers, in A450 nm.

// for each binder in input: emit Average A450 nm
1. D11-S17Y (antibody, human IgG2, kappa, V domains shown, Human engineered IgG2, kappa) VH: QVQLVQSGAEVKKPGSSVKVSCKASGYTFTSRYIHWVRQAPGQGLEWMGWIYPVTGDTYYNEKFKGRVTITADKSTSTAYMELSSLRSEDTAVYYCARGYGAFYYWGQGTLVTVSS VL: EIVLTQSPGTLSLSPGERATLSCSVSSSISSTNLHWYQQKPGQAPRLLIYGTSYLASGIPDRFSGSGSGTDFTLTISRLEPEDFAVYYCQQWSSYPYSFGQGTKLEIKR
2. D11-8B8 (antibody, human IgG2, kappa, V domains shown, Human engineered IgG2, kappa; expressed in HEK293 EBNA cells; also called Mab D11-8B8) VH: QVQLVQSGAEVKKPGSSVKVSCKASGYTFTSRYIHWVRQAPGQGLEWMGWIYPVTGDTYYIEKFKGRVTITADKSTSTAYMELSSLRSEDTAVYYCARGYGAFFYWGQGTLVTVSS VL: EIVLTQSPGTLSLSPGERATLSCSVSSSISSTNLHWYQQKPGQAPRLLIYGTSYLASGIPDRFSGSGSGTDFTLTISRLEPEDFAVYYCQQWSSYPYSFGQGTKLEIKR
3. D11-C27G3 (antibody, human IgG2, kappa, V domains shown, Human engineered IgG2, kappa; also called D11-27G3) VH: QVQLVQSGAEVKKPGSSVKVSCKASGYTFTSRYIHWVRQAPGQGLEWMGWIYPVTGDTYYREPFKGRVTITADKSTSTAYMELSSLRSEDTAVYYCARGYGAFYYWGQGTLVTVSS VL: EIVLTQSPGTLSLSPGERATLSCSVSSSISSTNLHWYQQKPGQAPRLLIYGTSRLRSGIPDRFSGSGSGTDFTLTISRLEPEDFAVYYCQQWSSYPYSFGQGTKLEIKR
4. C8-6 (antibody, human IgG2, kappa, V domains shown, Called IgG4, kappa; also called Mab C8-6) VH: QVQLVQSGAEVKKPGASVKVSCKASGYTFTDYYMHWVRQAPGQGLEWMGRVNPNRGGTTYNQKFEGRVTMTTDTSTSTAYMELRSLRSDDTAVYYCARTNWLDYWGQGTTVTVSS VL: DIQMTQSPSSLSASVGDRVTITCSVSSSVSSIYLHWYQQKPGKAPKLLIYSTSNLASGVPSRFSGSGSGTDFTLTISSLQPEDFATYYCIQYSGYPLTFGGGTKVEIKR

RESULT:
1: 4; 2: 4; 3: 3.92; 4: 4
